Parameter: Kb. Scope: all listed entries.
EXPERIMENTAL_SYSTEM: Histamine H2-receptor (Cavia porcellus, UniProt P47747)
Construct: the right atrium was isolated rapidly; from tissue; host or cells: guinea pig right atrium (isolated organ)
Sequence (P47747 whole entry): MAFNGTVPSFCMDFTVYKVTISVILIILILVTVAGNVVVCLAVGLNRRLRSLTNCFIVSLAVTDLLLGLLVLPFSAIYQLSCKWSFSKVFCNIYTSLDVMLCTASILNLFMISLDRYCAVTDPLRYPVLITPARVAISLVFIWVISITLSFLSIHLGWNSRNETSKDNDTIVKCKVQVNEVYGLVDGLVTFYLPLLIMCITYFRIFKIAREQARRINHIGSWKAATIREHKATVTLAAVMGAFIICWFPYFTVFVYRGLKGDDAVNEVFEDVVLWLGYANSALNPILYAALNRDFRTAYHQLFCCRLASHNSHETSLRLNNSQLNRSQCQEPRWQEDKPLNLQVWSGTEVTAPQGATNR
ASSAY_TEXT: Histamine H2-receptor antagonistic action (isolated right atrium, histamine response)
RUN_CONDITIONS: isolated guinea-pig right atrium, 32° C., tested compound 1×10^-6 M or 1×10^-7 M, Van Rossum method, read-out: pA2 (converted)
MEASURE_NAME: Kb (nM)

> print(dat)
                                   molecule  measure.name  readout.number
1    O=C(CSCc1ccco1)NCCSCc1ccc(CN2CCCCC2)s1            Kb             316
2   O=C(CSCc1ccco1)NCCCOc1cc(CN2CCCCC2)ccn1            Kb             100
3  Cc1ccc(CSCC(=O)NCCCOc2cccc(CN3CCCCC3)c2)s1            Kb            15.8
4  O=C(CSCc1ccccc1)NCCCOc1cccc(CN2CCCCC2)c1            Kb            31.6
5  COc1ccc(CSCC(=O)NCCCOc2cccc(CN3CCCCC3)c2)nc1            Kb            7.94
6     NC(N)=Nc1nc(CSCCNC(=O)CSCC2CCCCC2)cs1            Kb             794
7      NC(N)=Nc1nc(CSCCNC(=O)CSCc2ccco2)cs1            Kb            79.4
8  CC(SCC(=O)NCCCOc1cccc(CN2CCCCC2)c1)c1ccco1 (stereo not drawn)            Kb            31.6
9  O=C(C[S+]([O-])Cc1ccccc1)NCCCOc1cccc(CN2CCCCC2)c1 (stereo not drawn)            Kb             251

###

Each entry below carries its recorded log10 Kb.
EXPERIMENTAL_SYSTEM: Histamine H2-receptor (Cavia porcellus, UniProt P47747)
Construct: the right atrium was isolated rapidly; from tissue; host or cells: guinea pig right atrium (isolated organ)
ASSAY_TEXT: Histamine H2-receptor antagonistic action (isolated right atrium, histamine response)
RUN_CONDITIONS: isolated guinea-pig right atrium, 32° C., tested compound 1×10^-6 M or 1×10^-7 M, Van Rossum method, read-out: pA2 (converted)
Description: Histamine H2 -receptor antagonistic actions of the exemplified compounds were measured. Male Guinea-Pig weighing 300 to 350 g was killed by a blow on the head. […] Contraction of the right atrium to histamine was measured with a force-displacement transducer, and heart rate was measured with a heart rate meter. After the control dose-response curve in the presence of tested compound (1×10^-6 M or 1×10^-7 M) was determined. […]
MEASURE_NAME: log10 Kb (log10 of the value in nM)

> print(dat)
                                   compound  measure.name  readout.number
1  O=C(CSCc1cccc(Cl)n1)NCCCOc1cccc(CN2CCCCC2)c1      log10 Kb            1.30
2  CC1CCCCN1Cc1cccc(OCCCNC(=O)CS(=O)(=O)Cc2ccoc2)c1 (stereo not drawn)      log10 Kb            2.80
3  CC(=O)Nc1ccsc1CSCC(=O)NCCCOc1cccc(CN2CCCCC2)c1      log10 Kb            1.50
4   O=C(CSCc1ccco1)NCCCOc1cccc(CN2CCCCC2)c1      log10 Kb            1.70
5  Cc1cccc(CSCC(=O)NCCCOc2cccc(CN3CCCCC3)c2)n1      log10 Kb            1.40
6  COC(=O)c1ccc(CSCC(=O)NCCCOc2cccc(CN3CCCCC3)c2)o1      log10 Kb            1.30
7   O=C(CSCc1ccoc1)NCCCOc1cccc(CN2CCCCC2)c1      log10 Kb            1.50
8  CC1CCN(Cc2cccc(OCCCNC(=O)CS(=O)(=O)Cc3ccoc3)c2)CC1      log10 Kb            2.00
9  O=C(CSCc1ccsc1Cl)NCCCOc1cccc(CN2CCCCC2)c1      log10 Kb            1.60
